Below, each entry is listed alongside its reported IC50.
subject of test: Arachidonate 5-lipoxygenase-activating protein (Homo sapiens, UniProt P20292)
Sequence (P20292 whole entry): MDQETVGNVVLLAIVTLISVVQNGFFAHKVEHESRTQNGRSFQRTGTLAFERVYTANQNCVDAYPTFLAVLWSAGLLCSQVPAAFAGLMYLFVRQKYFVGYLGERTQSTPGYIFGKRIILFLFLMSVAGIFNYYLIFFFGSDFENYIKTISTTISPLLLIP
assay overview: Inhibition of FLAP in calcimycin-stimulated human whole blood assessed as reduction in LTB4 production pretreated for 15 mins followed by calcimycin addition after 30 mins by ELISA
property measured: IC50 (nM)

>>> value("CN(C(=O)Cn1cc(-c2nc(C3(c4ccc(-c5cnc(N)nc5)nc4)CCC3)no2)cn1)C(C)(C)C")
262
>>> value("C[C@@](c1ccc(-c2cnc(N)nc2)nc1)(c1noc(-c2cnn(C3COC3)c2)n1)C1CC1")
12
>>> value("N#CCCn1cc(-c2nc(C3(c4ccc(-c5cnc(N)nc5)cc4)CCC3)no2)cn1")
37
>>> value("CC1(O)CCN(c2nc([C@@](C)(c3ccc(-c4cnc(N)nc4)nc3)C3CC3)no2)CC1")
115
>>> value("Nc1ncc(-c2ccc(C3(c4noc(N5CCN(CC6CCCO6)CC5)n4)CCC3)cc2)cn1 (stereo not given)")
182
>>> value("CC(C)[C@](C)(c1ccc(-c2cnc(N)nc2)nc1)c1noc(-c2cnn(CC(=O)N(C)C)c2)n1")
197
>>> value("CC(C)[C@](C)(c1ccc(-c2cnc(N)nc2)nc1)c1noc(-c2cnn(C3COC3)c2)n1")
37
>>> value("Nc1ncc(-c2ccc(C3(c4noc(N5CCCC5)n4)CCC3)cn2)cn1")
917
>>> value("CCn1cc(-c2nc(C3(c4ccc(-c5cnc(N)nc5)nc4)CCC3)no2)cn1")
192
>>> value("CC(C)[C@](C)(c1ccc(-c2cnc(N)nc2)nc1)c1noc(-c2cnn(C)c2)n1")
33
>>> value("N#CCCn1cc(-c2nc(C3(c4ccc(-c5cnc(N)nc5)nc4)CCC3)no2)cn1")
85
>>> value("CC(C)(O)CN1CCN(c2nc([C@@](C)(c3ccc(-c4cnc(N)nc4)cc3)C3CC3)no2)CC1")
99
>>> value("CC(C)(C#N)n1cc(-c2nc(C3(c4ccc(-c5cnc(N)nc5)nc4)CCC3)no2)cn1")
94
>>> value("Nc1ncc(-c2ccc(C3(c4noc(N5CC[C@H](O)C5)n4)CCC3)cc2)cn1")
202
>>> value("Nc1ncc(-c2ccc(C3(c4noc(N5CCCCC5)n4)CCC3)cc2)cn1")
387
>>> value("Nc1ncc(-c2ccc(C3(c4noc(N5CCNCC5)n4)CCC3)cc2)cn1")
680
>>> value("C[C@@](c1ccc(-c2cnc(N)nc2)nc1)(c1noc(-c2cnn(CC#N)c2)n1)C1CC1")
19
>>> value("Cc1cc(-c2nc(C3(c4ccc(-c5cnc(N)nc5)cc4)CCC3)no2)[nH]n1")
80
>>> value("CC(C)(O)Cn1cc(-c2nc(C3(c4ccc(-c5cnc(N)nc5)nc4)CCC3)no2)cn1")
124
>>> value("Nc1ncc(-c2ccc(C3(c4noc(N5CCC(O)CC5)n4)CCC3)cn2)cn1")
595
>>> value("CC(C)(CO)n1cc(-c2nc(C3(c4ccc(-c5cnc(N)nc5)nc4)CCC3)no2)cn1")
403
>>> value("CC1(O)CCN(c2nc([C@@](C)(c3ccc(-c4cnc(N)nc4)cc3)C3CC3)no2)CC1")
13
>>> value("CC1(O)CCN(c2nc(C3(c4ccc(-c5cnc(N)nc5)cc4)CCC3)no2)CC1")
87
>>> value("CN(C)C(=O)Cn1cc(-c2nc([C@@](C)(c3ccc(-c4cnc(N)nc4)nc3)C3CC3)no2)cn1")
48
>>> value("Cn1cc(-c2nc([C@@](C)(c3ccc(-c4cnc(N)nc4)nc3)C3CC3)no2)cn1")
26
>>> value("Nc1ncc(-c2ccc(C3(c4noc(N5CCC(CO)CC5)n4)CCC3)cc2)cn1")
173
>>> value("C[C@@](c1ccc(-c2cnc(N)nc2)nc1)(c1noc(N2CCC(O)CC2)n1)C1CC1")
324
>>> value("CC1(O)CN(c2nc([C@@](C)(c3ccc(-c4cnc(N)nc4)cc3)C3CC3)no2)C1")
72
>>> value("CC(C)(C)NC(=O)Cn1cc(-c2nc(C3(c4ccc(-c5cnc(N)nc5)nc4)CCC3)no2)cn1")
195
>>> value("COCCn1cc(-c2nc(C3(c4ccc(-c5cnc(N)nc5)nc4)CCC3)no2)cn1")
213
>>> value("Nc1ncc(-c2ccc(C3(c4noc(N5CC(O)C5)n4)CCC3)cc2)cn1")
315
>>> value("Cn1cc(-c2nc(C3(c4ccc(-c5cnc(N)nc5)cn4)CCC3)no2)cn1")
787
>>> value("Nc1ncc(-c2ccc(C3(c4noc(N5CCCC5)n4)CCC3)cc2)cn1")
467
>>> value("Nc1ncc(-c2ccc(C3(c4noc(N5CCC(O)CC5)n4)CCC3)cc2)cn1")
118
>>> value("CC(C)OC1CCN(c2nc(C3(c4ccc(-c5cnc(N)nc5)cc4)CCC3)no2)CC1")
174
>>> value("CN(c1cnn(C)c1)c1nc([C@@](C)(c2ccc(-c3cnc(N)nc3)cc2)C2CC2)no1")
92
>>> value("Cc1cc(-c2nc(C3(c4ccc(-c5cnc(N)nc5)cn4)CCC3)no2)[nH]n1")
342
>>> value("CC(C)[C@](C)(c1ccc(-c2cnc(N)nc2)nc1)c1noc(-c2cnn(CC#N)c2)n1")
40
>>> value("CN(C)c1nc(C2(c3ccc(-c4cnc(N)nc4)nc3)CCC2)no1")
2600
>>> value("CN(C)C(=O)N1CCN(c2nc([C@@](C)(c3ccc(-c4cnc(N)nc4)cc3)C3CC3)no2)CC1")
58
